system: Listeria monocytogenes; assay: Antibacterial activity against Listeria monocytogenes ATCC 19111 after 18 to 20 hrs in aerobic condition by CLSI-based broth microdilution assay; format: functional
parameter.measured: MIC (µg/mL)
A number alone suffices; assume µg/mL.

The cases that follow already have their MIC on record.
Find the measured MIC: item C/C(=N\NC(=N)N)c1cnn(-c2ccc(C#CC3CCCCC3)cc2)c1C , target or system Listeria monocytogenes. 2

Find the measured MIC: item CN[C@H](CC(C)C)C(=O)N[C@H]1C(=O)N[C@@H](CC(N)=O)C(=O)N[C@H]2C(=O)N[C@H]3C(=O)N[C@H](C(=O)N[C@H](C(=O)O)c4cc(O)cc(O)c4-c4cc3ccc4O)[C@H](O)c3ccc(c(Cl)c3)Oc3cc2cc(c3O[C@@H]2O[C@H](CO)[C@@H](O)[C@H](O)[C@H]2O[C@H]2C[C@](C)(N)[C@H](O)[C@H](C)O2)Oc2ccc(cc2Cl)[C@H]1O , target or system Listeria monocytogenes. 2

Further cases:
Find the measured MIC: item CC(=O)NC[C@H]1CN(c2ccc(N3CCOCC3)c(F)c2)C(=O)O1 , target or system Listeria monocytogenes. 1
